B1: SCARA5 (parent)
chain: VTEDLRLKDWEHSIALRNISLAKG

Variants of: B1
Experiment: protein stability index of a GFP-peptide fusion (GPS, HEK-293T) (PSI 1-6); higher = more stable;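 also: lentivirally expressed fusions sorted by FACS into six bins by GFP to DsRed ratio, PSI derived from sequencing read proportions per bin multiplied by bin number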
Conditions: c terminus: a fixed tail appended
readout-type: protein stability index
Hey, just send me the number, nothing else.

>>> df
   mutation_key             readout_type  assay_value
0          N18G  protein stability index          3.6

Q: Please look up its protein stability index: `E11F`
Ans: 2.24

Q: Please look up its protein stability index: `L7V`
Ans: 3.71
